Assay: Flash point (JIS-K2265)
Assay type: physicochemical
Observed property: Flash point
# include the unit after the value

# example entries with known answers
| Compound | Flash point |
| --- | --- |
| COCC(C)OC1CCCCC1 (stereo not drawn) | 73 °C |
| CCCCOCC(C)O (stereo not drawn) | 59 °C |

Kindly review the next compound as well.
Q) // Flash point lookup, key: "CCCCCCOCCOCCO"
A) 140 °C

====

Task for the reader: assign each of the following molecules its reported Flash point.
Assay: Flash point (JIS-K2265)
Type: physicochemical
Give bare numbers, in °C.

Worked examples follow.
| Molecule | Observed value |
| --- | --- |
| CCOCCOCCOCC [Comparative Example 8, Diethylene glycol diethyl ether] | 72 |
| CC(O)COC1CCCCC1 (centres unmarked) [Comparative Example 9, 1-cyclohexyloxy-2-propanol] | 88 |
| C=C(C)C1CC=C(C)CC1 (centres unmarked) [Comparative Example 6, Limonene] | 45 |

Batch request: Flash point for each of the following molecules.
1. CCCCCCOCCO [Comparative Example 1, Ethylene glycol mono-n-hexyl ether]
2. CCCCOCCOCCO [Comparative Example 7, Diethylene glycol monobutyl ether]
3. COCC(C)OC(C)=O (centres unmarked) [compound 4, Propylene glycol methyl ether acetate]
4. CCOCC(C)OC1CCCCC1 (centres unmarked) [Example 2, propylene glycol ethyl cyclohexyl ether]
5. CCCCOCC(C)OCCCC (centres unmarked) [compound 5, Propylene glycol di-n-butyl ether]

A)
1. 82
2. 116
3. 47
4. 80
5. 69

====

Test: Separability from water
Type: physicochemical
Conditions: result in words

| Molecule | separability from water |
| --- | --- |
| CCCCOCCOCCO | poor |
| CCCCCCOCCOCCO | good |
| C=C(C)C1CC=C(C)CC1 (stereo not shown) | good |
| CCOCCOCCOCC | poor |

====

Conditions: 20° C.; solubility of water in the sample compound
Give measured Solubility (Water in) for each item. Keep answers brief.
One number for each entry, in %.

Solved cases (3 shown):
| Compound | Solubility (Water in) [%] |
| --- | --- |
| CCOCC(C)OC1CCCCC1 (stereo not shown) | 0.7 |
| CCCCOCC(C)OCCCC (stereo not shown) | 0.6 |
| COCC(C)OC(C)=O (stereo not shown) [compound 4, Propylene glycol methyl ether acetate] | 19.0 |

Value sought for every listed compound: Solubility (Water in).
1. CCCCOCC(C)O (stereo not shown)
2. COCC(C)OC1CCCCC1 (stereo not shown)
3. COCC(C)OC1CCCCC1O (stereo not shown) [Example 3, 2-hydroxycyclohexyloxymethoxypropane]
4. CCCCCCOCCO

A)
1. 14.9
2. 1.4
3. 11.7
4. 18.8

====

Format: physicochemical
Observed property: Boiling point
Please append the unit to your numeric answer.

| Compound | Observed property | Observed value |
| --- | --- | --- |
| CCCCOCC(C)O (stereo not shown) | Boiling point | 170 °C |
| COCC(C)OC1CCCCC1 (stereo not shown) | Boiling point | 175 °C |
| COCC(C)OC(C)=O (stereo not shown) [compound 4, Propylene glycol methyl ether acetate] | Boiling point | 146 °C |

Fill in Boiling point for each of the 4 compounds listed.
1. CC(O)COC1CCCCC1 (stereo not shown)
2. CCCCOCC(C)OCCCC (stereo not shown)
3. CCOCC(C)OC1CCCCC1 (stereo not shown)
4. CCCCCCOCCO

A)
1. 208 °C
2. 190 °C
3. 192 °C
4. 208 °C

This collection of values is drawn from patent US5414144A.
